- measurement_target: human ether-à-go-go-related gene (hERG) potassium channel (human)
- Sequence (Q12809 whole entry, looked up): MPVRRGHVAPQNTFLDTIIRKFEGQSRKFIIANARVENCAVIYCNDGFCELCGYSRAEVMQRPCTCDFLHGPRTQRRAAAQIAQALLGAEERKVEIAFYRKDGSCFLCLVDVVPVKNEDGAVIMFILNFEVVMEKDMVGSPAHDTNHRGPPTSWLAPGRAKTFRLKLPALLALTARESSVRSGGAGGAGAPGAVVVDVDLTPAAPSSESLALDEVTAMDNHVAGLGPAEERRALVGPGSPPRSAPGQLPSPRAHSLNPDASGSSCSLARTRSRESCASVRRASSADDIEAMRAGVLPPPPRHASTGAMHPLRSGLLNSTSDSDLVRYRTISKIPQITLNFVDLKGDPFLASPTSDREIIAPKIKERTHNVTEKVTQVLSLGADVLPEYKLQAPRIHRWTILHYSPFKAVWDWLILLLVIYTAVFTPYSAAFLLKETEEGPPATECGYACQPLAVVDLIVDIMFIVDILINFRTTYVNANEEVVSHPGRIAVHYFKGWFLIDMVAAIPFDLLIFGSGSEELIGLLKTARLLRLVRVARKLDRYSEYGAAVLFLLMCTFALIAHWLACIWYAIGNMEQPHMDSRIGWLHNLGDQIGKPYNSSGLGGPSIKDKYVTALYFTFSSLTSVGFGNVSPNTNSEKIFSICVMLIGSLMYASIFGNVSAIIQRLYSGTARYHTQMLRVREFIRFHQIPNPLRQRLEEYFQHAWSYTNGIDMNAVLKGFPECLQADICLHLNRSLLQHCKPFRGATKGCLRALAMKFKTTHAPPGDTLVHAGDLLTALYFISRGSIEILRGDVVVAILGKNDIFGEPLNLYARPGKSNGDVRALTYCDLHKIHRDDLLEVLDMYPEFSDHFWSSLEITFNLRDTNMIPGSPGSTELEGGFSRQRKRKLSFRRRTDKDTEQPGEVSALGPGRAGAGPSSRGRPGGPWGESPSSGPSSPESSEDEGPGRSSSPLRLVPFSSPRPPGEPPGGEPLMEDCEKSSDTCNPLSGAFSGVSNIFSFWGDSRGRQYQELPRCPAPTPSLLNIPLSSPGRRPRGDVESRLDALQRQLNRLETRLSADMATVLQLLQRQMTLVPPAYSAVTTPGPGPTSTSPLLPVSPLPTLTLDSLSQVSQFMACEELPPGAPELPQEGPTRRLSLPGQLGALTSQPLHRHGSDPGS
- method_notes: primary screen, population patch clamp on CHO cells stably expressing hERG; higher = less effect of the substance
In all, about 310,000 compounds went through this assay and about 2,200 (0.71%) showed an effect of 50% or more. The effect is printed as a negative number. This excerpt belongs to a sample that is enriched for strong results.
readout_type: hERG current change (%, negative = inhibition) at 1uM (%)
Numeric only. Scale: %

Cc1ccc(CCC(=O)Nc2ccccc2F)s1: 4.84
O=C(NCCN1CCN(C(=O)c2cccc(Br)c2)CC1)C(=O)NCc1ccccc1: -11.2

Prompt: For the molecule shown here, `Cc1nc(C)c(C(=O)Nc2nc3c(C)cccc3s2)o1` , give the reported hERG current change (%, negative = inhibition) at 1uM.
Completion: -4.12

Prompt: Which value of hERG current change (%, negative = inhibition) at 1uM has been reported for `C=CCNC(=O)NS(=O)(=O)c1ccc(C)cc1` in the records?
Completion: 16.6

Prompt: # hERG current change (%, negative = inhibition) at 1uM lookup, item `Cc1nc(N2CCN(C(=O)COc3ccccc3)CC2)c2c(C)c(C)sc2n1.Cl`
Completion: -29.3

Prompt: Param item = `COc1ccc(NC(=O)/C=C/c2ccc(C)o2)cc1S(=O)(=O)N1CCOCC1` ; retrieve measured hERG current change (%, negative = inhibition) at 1uM.
Completion: 3.88

Prompt: What value of measured hERG current change (%, negative = inhibition) at 1uM is listed for `O=C(/C=C/c1cccc(F)c1)Nc1cc(S(=O)(=O)N2CCOCC2)ccc1N1CCCC1` ?
Completion: 0.626

Prompt: Which hERG current change (%, negative = inhibition) at 1uM is reported for this molecule? `Cc1ccc(S(=O)(=O)N2CCN(c3ccccc3)CC2)cc1C(N)=O`
Completion: -52

Prompt: Any idea what hERG current change (%, negative = inhibition) at 1uM was measured for `Cc1nc(N2CCN(C(=O)CCC(=O)O)CC2)c2c(C)c(C)sc2n1` ?
Completion: -4.32

Prompt: Given the molecule `Cc1cccn2c(=O)c3cc(C(=O)NCCN4CCOCC4)c(=N)n(CCN4CCOCC4)c3nc12` , what is its reported hERG current change (%, negative = inhibition) at 1uM?
Completion: 12.2

Prompt: # input molecule: `CC1=C(C(=O)Nc2cccc(C(=O)NCc3ccc(F)cc3)c2)SCCO1` ; wanted: its hERG current change (%, negative = inhibition) at 1uM
Completion: 15.3

Prompt: Given the molecule `O=C(NCCN1CCN(C(=O)c2cccc([N+](=O)[O-])c2)CC1)C(=O)NCc1ccc(Cl)cc1` , what is its reported hERG current change (%, negative = inhibition) at 1uM?
Completion: 0.645

Prompt: Entry `COc1ccc(NC(=O)C(=O)NCCN2CCN(C(=O)c3ccc(C)cc3)CC2)cc1` has what hERG current change (%, negative = inhibition) at 1uM?
Completion: -28.6

Prompt: Param item = COc1ccc(N2CC(C(=O)Nc3ccccc3N3CCCC3)CC2=O)c(OC)c1 (stereo not drawn) ; retrieve measured hERG current change (%, negative = inhibition) at 1uM.
Completion: 8.29

Prompt: # hERG current change (%, negative = inhibition) at 1uM lookup, item `O=c1c2ccccc2n2cnnc2n1-c1ccccc1`
Completion: 2.26

Prompt: Look up hERG current change (%, negative = inhibition) at 1uM: `CC1(C)O[C@@H]2C[C@H]3[C@@H]4C[C@H](F)C5=CC(=O)CC[C@]5(C)[C@H]4[C@@H](O)C[C@]3(C)[C@]2(C(=O)CO)O1`
Completion: 18.1

Prompt: Reported hERG current change (%, negative = inhibition) at 1uM for `COCCn1c(=N)c(C(=O)NCCc2ccccc2)cc2c(=O)n3cccc(C)c3nc21` : what is it?
Completion: -86.1

Prompt: hERG current change (%, negative = inhibition) at 1uM for `Cc1cccn2c(=O)c3cc(C(=O)NCCN4CCOCC4)n(C)c3nc12` ?
Completion: 9.82

Prompt: Entry under review: C/C=C1\COC(C(=O)NCc2ccncc2)(C(F)(F)F)C=C1C=C1CCCCC1 (stereo not drawn) . Reported hERG current change (%, negative = inhibition) at 1uM?
Completion: 12.8

Prompt: Please report the recorded hERG current change (%, negative = inhibition) at 1uM for `Cc1ccc(S(=O)(=O)N2CCN(c3ccccc3)CC2)cc1C(=O)NC1CCCCC1` .
Completion: 10.8

Prompt: hERG current change (%, negative = inhibition) at 1uM lookup needed for `COCCn1c(=N)c(C(=O)NCCc2ccc(OC)cc2)cc2c(=O)n3cccc(C)c3nc21` , thanks.
Completion: -95.4
